Every entry's value here was drawn from PubChem BioAssay AID1963425.

Test system: 323965-272-R-J2-PDC complex spheroid growth, % test/control
protocol details: Anticancer human tumor 323965-272-R-J2-PDC patient-derived pancreatic carcinoma cell line growth inhibition [Asc]
measurement context: second compound 0.3 µM; first compound 0.1 µM; hits give low values
readout name: viability, T/C (%)
The reply should be a number in %, with the unit left off.

Some entries whose results are on file:
C=CC(=O)N1CCN(c2nc(=O)n(-c3c(C)ccnc3C(C)C)c3nc(-c4c(O)cccc4F)c(F)cc23)C(C)C1 (stereo not given) + CCN1C(C(=O)NC23CCC(C(=O)O)(CC2)CC3)C(c2cccc(Cl)c2F)C2(C(=O)Nc3cc(Cl)ccc32)C12CCCCC2 :: 73.2
NC1CCC(NC2CC2c2ccccc2)CC1 (stereo not given) + CCN1C(C(=O)NC23CCC(C(=O)O)(CC2)CC3)C(c2cccc(Cl)c2F)C2(C(=O)Nc3cc(Cl)ccc32)C12CCCCC2 :: 88.3
C=C(F)C(=O)N1CCN(c2nc(OCC3CCCN3C)nc3c2CCN(c2cccc4cccc(Cl)c24)C3)CC1CC#N (stereo not given) + CCN1C(C(=O)NC23CCC(C(=O)O)(CC2)CC3)C(c2cccc(Cl)c2F)C2(C(=O)Nc3cc(Cl)ccc32)C12CCCCC2 :: 64.4

Simply: C#Cc1c(F)ccc2cc(O)cc(-c3ncc4c(N5CC6CCC(C5)N6)nc(OCC56CCCN5CC(F)C6)nc4c3F)c12 (stereo not given) + CCN1C(C(=O)NC23CCC(C(=O)O)(CC2)CC3)C(c2cccc(Cl)c2F)C2(C(=O)Nc3cc(Cl)ccc32)C12CCCCC2 , 323965-272-R-J2-PDC complex spheroid growth, % test/control, viability, T/C = 110

323965-272-R-J2-PDC complex spheroid growth, % test/control data for COc1c(OCCCN2CCOCC2)ccc2c3n(c(=NC(=O)c4cnc(N)nc4)nc12)CCN3 + CCN1C(C(=O)NC23CCC(C(=O)O)(CC2)CC3)C(c2cccc(Cl)c2F)C2(C(=O)Nc3cc(Cl)ccc32)C12CCCCC2 ; its viability, T/C: 56.3

Value sought: viability, T/C, system 323965-272-R-J2-PDC complex spheroid growth, % test/control, item Cn1ncnc1[C@H]1c2n[nH]c(=O)c3cc(F)cc(c23)N[C@@H]1c1ccc(F)cc1 + CCN1C(C(=O)NC23CCC(C(=O)O)(CC2)CC3)C(c2cccc(Cl)c2F)C2(C(=O)Nc3cc(Cl)ccc32)C12CCCCC2 . Result: 77.7

Known value: 323965-272-R-J2-PDC complex spheroid growth, % test/control viability, T/C of the compound O=C(c1cc(Cc2n[nH]c(=O)c3ccccc23)ccc1F)N1CCN(C(=O)C2CC2)CC1 + CCN1C(C(=O)NC23CCC(C(=O)O)(CC2)CC3)C(c2cccc(Cl)c2F)C2(C(=O)Nc3cc(Cl)ccc32)C12CCCCC2 equals 107

The reported 323965-272-R-J2-PDC complex spheroid growth, % test/control viability, T/C of CNC(C)C(=O)NC1CN(S(=O)(=O)c2cccc(S(=O)(=O)N3CCC4CCC(C(=O)NC(c5ccccc5)c5ccccc5)N4C(=O)C(NC(=O)C(C)NC)C3)c2)CCC2CCC(C(=O)NC(c3ccccc3)c3ccccc3)N2C1=O (stereo not given) + CCN1C(C(=O)NC23CCC(C(=O)O)(CC2)CC3)C(c2cccc(Cl)c2F)C2(C(=O)Nc3cc(Cl)ccc32)C12CCCCC2 is 92.8

Measured viability, T/C for this entry CCN1CCN(Cc2ccc(Nc3ncc(F)c(-c4cc(F)c5nc(C)n(C(C)C)c5c4)n3)nc2)CC1 + CCN1C(C(=O)NC23CCC(C(=O)O)(CC2)CC3)C(c2cccc(Cl)c2F)C2(C(=O)Nc3cc(Cl)ccc32)C12CCCCC2 on 323965-272-R-J2-PDC complex spheroid growth, % test/control: 78.9

I looked up O=C(c1ccc(F)c(F)c1Nc1ccc(I)cc1F)N1CC(O)([C@@H]2CCCCN2)C1 + CCN1C(C(=O)NC23CCC(C(=O)O)(CC2)CC3)C(c2cccc(Cl)c2F)C2(C(=O)Nc3cc(Cl)ccc32)C12CCCCC2 and its viability, T/C for 323965-272-R-J2-PDC complex spheroid growth, % test/control was 54.6

---

Test system: 323965-272-R-J2-PDC complex spheroid growth, % test/control
protocol details: Anticancer human tumor 323965-272-R-J2-PDC cell line growth inhibition [Asc];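 note: compound exposure lasted 7 days starting three days after spheroid seeding; 100% = DMSO vehicle control wells with viability set relative to vehicle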
measurement context: second compound 0.1 µM; first compound 0.3 µM; hits give low values
Reported values of viability, T/C for individual entries
The reply should contain only the number, in %.

Cc1nc(N2CCC3(CC2)COC(C)C3N)c(CO)nc1Sc1ccnc(N)c1Cl (configuration not stated) + Cc1c(S(C)(=O)=O)c(-c2cc(F)cc(N3CCN(c4ccc(NS(=O)(=O)c5ccc(NC(CCN6CCC(C(=O)OCCCP(=O)(O)O)CC6)CSc6ccccc6)c(S(=O)(=O)C(F)(F)F)c5)cc4)CC3)c2)c(-c2ccc(Cl)cc2)n1C(C)C :: 69

We now examine a further compound.
// viability, T/C lookup, compound = CCN1C(C(=O)NC23CCC(C(=O)O)(CC2)CC3)C(c2cccc(Cl)c2F)C2(C(=O)Nc3cc(Cl)ccc32)C12CCCCC2 (configuration not stated) + CNC(C)C(=O)NC1CN(S(=O)(=O)c2cccc(S(=O)(=O)N3CCC4CCC(C(=O)NC(c5ccccc5)c5ccccc5)N4C(=O)C(NC(=O)C(C)NC)C3)c2)CCC2CCC(C(=O)NC(c3ccccc3)c3ccccc3)N2C1=O , result: 104

---

System: 323965-272-R-J2-PDC complex spheroid growth, % test/control
protocol details: Anticancer human tumor 323965-272-R-J2-PDC cell line growth inhibition [Asc];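 note: compound exposure lasted 7 days starting three days after spheroid seeding; 100% = DMSO vehicle control wells with viability set relative to vehicle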
measurement context: second compound 1 µM; first compound 0.000316 µM; hits give low values
Text: Multicellular complex tumor spheroid response to apoptosis pathway targeting inhibitors Alrizomadlin, Pelcitoclax, and Dasminapant in combination with a variety of drugs and investigational agents in selected tumor cell lines […] Compounds. […] If the clinical Cmax for an agent had not been determined, the highest concentration tested was 10 microM. […]
readout name: viability, T/C (%)
Write it as a number; the unit % goes unstated.

Some solved cases for reference:
NC1CCC(NC2CC2c2ccccc2)CC1 (centres undefined) + Cc1c(S(C)(=O)=O)c(-c2cc(F)cc(N3CCN(c4ccc(NS(=O)(=O)c5ccc(NC(CCN6CCC(C(=O)OCCCP(=O)(O)O)CC6)CSc6ccccc6)c(S(=O)(=O)C(F)(F)F)c5)cc4)CC3)c2)c(-c2ccc(Cl)cc2)n1C(C)C :: 94.4
Cn1ncnc1[C@H]1c2n[nH]c(=O)c3cc(F)cc(c23)N[C@@H]1c1ccc(F)cc1 + Cc1c(S(C)(=O)=O)c(-c2cc(F)cc(N3CCN(c4ccc(NS(=O)(=O)c5ccc(NC(CCN6CCC(C(=O)OCCCP(=O)(O)O)CC6)CSc6ccccc6)c(S(=O)(=O)C(F)(F)F)c5)cc4)CC3)c2)c(-c2ccc(Cl)cc2)n1C(C)C :: 96.5
NC1CCC(NC2CC2c2ccccc2)CC1 (centres undefined) + CNC(C)C(=O)NC1CN(S(=O)(=O)c2cccc(S(=O)(=O)N3CCC4CCC(C(=O)NC(c5ccccc5)c5ccccc5)N4C(=O)C(NC(=O)C(C)NC)C3)c2)CCC2CCC(C(=O)NC(c3ccccc3)c3ccccc3)N2C1=O :: 93.5

Now for a further compound.
Entry under test: Cn1ncnc1[C@H]1c2n[nH]c(=O)c3cc(F)cc(c23)N[C@@H]1c1ccc(F)cc1 + CNC(C)C(=O)NC1CN(S(=O)(=O)c2cccc(S(=O)(=O)N3CCC4CCC(C(=O)NC(c5ccccc5)c5ccccc5)N4C(=O)C(NC(=O)C(C)NC)C3)c2)CCC2CCC(C(=O)NC(c3ccccc3)c3ccccc3)N2C1=O . Its viability, T/C was 87.5

---

System: 323965-272-R-J2-PDC complex spheroid growth, % test/control
protocol details: Anticancer human tumor 323965-272-R-J2-PDC cell line growth inhibition [Asc];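 note: compound exposure lasted 7 days starting three days after spheroid seeding; 100% = DMSO vehicle control wells with viability set relative to vehicle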
measurement context: second compound 0.1 µM; first compound 0.001 µM; hits give low values
Text: Multicellular complex tumor spheroid response to apoptosis pathway targeting inhibitors Alrizomadlin, Pelcitoclax, and Dasminapant in combination with a variety of drugs and investigational agents in selected tumor cell lines […] Compounds. […] If the clinical Cmax for an agent had not been determined, the highest concentration tested was 10 microM. […]
Entries and their measured viability, T/C follow.
State just the number; it will be interpreted in %.

Please review the entries below; each comes with its answer.
Cn1ncnc1[C@H]1c2n[nH]c(=O)c3cc(F)cc(c23)N[C@@H]1c1ccc(F)cc1 + Cc1c(S(C)(=O)=O)c(-c2cc(F)cc(N3CCN(c4ccc(NS(=O)(=O)c5ccc(NC(CCN6CCC(C(=O)OCCCP(=O)(O)O)CC6)CSc6ccccc6)c(S(=O)(=O)C(F)(F)F)c5)cc4)CC3)c2)c(-c2ccc(Cl)cc2)n1C(C)C :: 102
NC1CCC(NC2CC2c2ccccc2)CC1 (centres undefined) + CNC(C)C(=O)NC1CN(S(=O)(=O)c2cccc(S(=O)(=O)N3CCC4CCC(C(=O)NC(c5ccccc5)c5ccccc5)N4C(=O)C(NC(=O)C(C)NC)C3)c2)CCC2CCC(C(=O)NC(c3ccccc3)c3ccccc3)N2C1=O :: 88.6
Cn1ncnc1[C@H]1c2n[nH]c(=O)c3cc(F)cc(c23)N[C@@H]1c1ccc(F)cc1 + CNC(C)C(=O)NC1CN(S(=O)(=O)c2cccc(S(=O)(=O)N3CCC4CCC(C(=O)NC(c5ccccc5)c5ccccc5)N4C(=O)C(NC(=O)C(C)NC)C3)c2)CCC2CCC(C(=O)NC(c3ccccc3)c3ccccc3)N2C1=O :: 106

Okay, now this compound:
viability, T/C reported for this compound NC1CCC(NC2CC2c2ccccc2)CC1 (centres undefined) + Cc1c(S(C)(=O)=O)c(-c2cc(F)cc(N3CCN(c4ccc(NS(=O)(=O)c5ccc(NC(CCN6CCC(C(=O)OCCCP(=O)(O)O)CC6)CSc6ccccc6)c(S(=O)(=O)C(F)(F)F)c5)cc4)CC3)c2)c(-c2ccc(Cl)cc2)n1C(C)C : 99.2
